target: AT2R (Homo sapiens (Human), UniProt P50052)
Sequence (P50052 whole entry): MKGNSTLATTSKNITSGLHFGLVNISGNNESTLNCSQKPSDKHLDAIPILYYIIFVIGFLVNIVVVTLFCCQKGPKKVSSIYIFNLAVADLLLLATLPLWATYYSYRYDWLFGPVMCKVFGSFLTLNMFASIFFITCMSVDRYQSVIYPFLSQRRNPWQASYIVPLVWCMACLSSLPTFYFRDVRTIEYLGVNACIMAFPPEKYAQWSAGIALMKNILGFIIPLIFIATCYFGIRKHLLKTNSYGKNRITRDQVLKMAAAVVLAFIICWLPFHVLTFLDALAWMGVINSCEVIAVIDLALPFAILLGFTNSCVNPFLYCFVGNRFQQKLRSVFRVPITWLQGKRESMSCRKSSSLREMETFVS
pIC50: −log10 of the molar value.
reported.metric: pIC50

molecule	reported.metric	numeric.value
COC(=O)NS(=O)(=O)c1sc(CC(C)C)cc1-c1ccc(Cn2ccnc2C)c(C)c1 [Compound I-21]	pIC50	8.56
CCCCOC(=O)NS(=O)(=O)c1sc(CC(C)C)cc1-c1ccc(Cn2ccnc2)c(C)c1 [Compound I-2]	pIC50	8.48

[a] COC(=O)NS(=O)(=O)c1sc(CC(C)C)c(C)c1-c1ccc(Cn2ccnc2C(C)(C)C)cc1 [Compound I-26]
[b] Cc1cc(-c2cc(CC(C)C)sc2S(=O)(=O)NC(=O)NCCO)ccc1Cn1ccnc1C [Compound I-23]
Q: Parameter check: reported pIC50 is higher for which label, a or b ? Identify your selection by its label.
Result: a
